Catalogue of compounds with associated Microsomal Stability (rat) T1/2
Test: Microsomal stability (rat)
Format: in vitro ADME
Conditions: rat microsomes
metric_name: Microsomal Stability (rat) T1/2 (min)

* O=C(c1ccc(-n2c(=O)ccc3cnc4ccc(-c5ccc(CN6CCOCC6)cc5)cc4c32)cc1)N1CCOCC1 | 15.1
* N#Cc1cc(-n2c(=O)ccc3cnc4ccc(-c5ccc(N)nc5)cc4c32)ccc1N1CCOCC1 | 3.5
* COc1cc(C(=O)NCCN(C)c2ccccc2)ccc1-n1c(=O)ccc2cnc3ccc(-c4ccc(Cl)cc4)cc3c21 | 1.3

---

Catalogue of compounds with associated PAMPA Permeability
Test: PAMPA permeability
Assay type: in vitro ADME
metric_name: PAMPA Permeability (×10⁻⁶ cm/s)

* O=C(c1ccc(-n2c(=O)ccc3cnc4ccc(-c5cccc(CCN6CCCC6)c5)cc4c32)cc1)N1CCOCC1 | 227
* Cc1cc(C(=O)NC2CC2)ccc1-n1c(=O)ccc2cnc3ccc(-c4ccc(Cl)c(O)c4)cc3c21 | 735
* Cc1cc(C(=O)NC2CCN(CCO)CC2)ccc1-n1c(=O)ccc2cnc3ccc(-c4ccc(Cl)cc4)cc3c21 | 49.1
* O=C(c1ccc(-n2c(=O)ccc3cnc4ccc(-c5ccc(Cl)cc5)cc4c32)cc1)N1CCNCC1 | 76.1

---

Catalogue of compounds with associated PAMPA Permeability
Assay: PAMPA permeability
Type: in vitro ADME
metric_name: PAMPA Permeability

* CN(C)CCc1cccc(-c2ccc3ncc4ccc(=O)n(-c5ccc(C(=O)N6CCOCC6)cc5)c4c3c2)c1 | 189 ×10⁻⁶ cm/s
* N#Cc1ccc(-c2ccc3ncc4ccc(=O)n(-c5ccc(C(=O)N6CCOCC6)cc5)c4c3c2)cc1 | 591 ×10⁻⁶ cm/s
* COc1cc(C(=O)NC2CC2)ccc1-n1c(=O)ccc2cnc3ccc(-c4ccc(C5(N)CC5)cc4)cc3c21 | 456 ×10⁻⁶ cm/s
* O=C(c1ccc(-n2c(=O)ccc3cnc4ccc(-c5ccc(CN6CCC6)cc5)cc4c32)cc1)N1CCOCC1 | 212 ×10⁻⁶ cm/s
* Cc1cc(C(=O)NC2CC2)ccc1-n1c(=O)ccc2cnc3ccc(-c4ccc(F)cc4)cc3c21 | 1180 ×10⁻⁶ cm/s
* CN(C)CC#Cc1ccc2ncc3c(c2c1)n(-c1cccc(C#N)c1)c(=O)n3C | 208 ×10⁻⁶ cm/s
* COc1cc(C(=O)NC2CCN(CCN(C)C)CC2)ccc1-n1c(=O)ccc2cnc3ccc(-c4ccc(Cl)cc4)cc3c21 | 14.3 ×10⁻⁶ cm/s
* O=C1Cc2cc(-c3ccc4ncc5ccc(=O)n(-c6ccc(C(=O)N7CCOCC7)cc6)c5c4c3)ccc2N1 | 9.1 ×10⁻⁶ cm/s
* CC(O)c1ccc(-c2ccc3ncc4c(c3c2)n(-c2cccc(C#N)c2)c(=O)n4C)cc1 (centres unmarked) | 645 ×10⁻⁶ cm/s
* COc1cc(C(=O)NCCN2CCNCC2)ccc1-n1c(=O)ccc2cnc3ccc(-c4ccc(Cl)cc4)cc3c21 | 1.5 ×10⁻⁶ cm/s
* NC1(c2ccc(-c3ccc4ncc5ccc(=O)n(-c6ccc(C(=O)N7CCOCC7)cc6)c5c4c3)cc2)CCC1 | 36.3 ×10⁻⁶ cm/s
* Cc1nc2ccc(-c3ccc(Cl)cc3)cc2c2c1ccc(=O)n2-c1ccc(C(=O)N2CCOCC2)cc1 | 874 ×10⁻⁶ cm/s
* O=C(c1ccc(-n2c(=O)ccc3cnc4ccc(-c5ccc(Cl)cc5)cc4c32)cc1)N1C2CCC1CC(O)C2 (centres unmarked) | 238 ×10⁻⁶ cm/s
* O=C(NC1CCCC1)c1ccc(-n2c(=O)ccc3cnc4ccc(-c5ccc(Cl)cc5)cc4c32)cc1 | < 1 ×10⁻⁶ cm/s
* O=C(c1ccc(-n2c(=O)ccc3c[n+]([O-])c4ccc(-c5ccc(Cl)cc5)cc4c32)cc1)N(CCO)CCO | < 1 ×10⁻⁶ cm/s
* Cc1cc(C(=O)NCCN2CCN(C)CC2)ccc1-n1c(=O)ccc2cnc3ccc(-c4ccc(Cl)cc4)cc3c21 | 354 ×10⁻⁶ cm/s
* COc1cc(C(=O)NC2CC2)ccc1-n1c(=O)ccc2cnc3ccc(-c4ccc(Cl)cc4)cc3c21 | 606 ×10⁻⁶ cm/s
* O=C(O)c1cc(Cl)ccc1-c1ccc2ncc3ccc(=O)n(-c4ccc(C(=O)N5CCOCC5)cc4)c3c2c1 | 3 ×10⁻⁶ cm/s
* COc1cc(C(=O)N2CCOCC2)ccc1-n1c(=O)ccc2cnc3ccc(-c4ccc(Cl)cc4)cc3c21 | 1440 ×10⁻⁶ cm/s
* O=Cc1ccc(-c2ccc3ncc4ccc(=O)n(-c5ccc(C(=O)N6CCOCC6)cc5)c4c3c2)cn1 | 31.3 ×10⁻⁶ cm/s
* CC(C)(N)c1ccc(-c2ccc3ncc4ccc(=O)n(-c5ccc(C(=O)NC6CC6)cc5)c4c3c2)cc1 | 1.5 ×10⁻⁶ cm/s
* CCN(CC)CCCNC(=O)c1ccc(-n2c(=O)ccc3cnc4ccc(-c5ccc(Cl)cc5)cc4c32)c(C)c1 | 311 ×10⁻⁶ cm/s
* CC(C)(C)c1ccc(-c2ccc3ncc4ccc(=O)n(-c5ccc(C(=O)N6CCOCC6)cc5)c4c3c2)cc1 | 85.9 ×10⁻⁶ cm/s
* CC(C)NC(=O)c1ccc(-n2c(=O)ccc3cnc4ccc(-c5ccc(Cl)cc5)cc4c32)cc1 | < 1 ×10⁻⁶ cm/s
* O=C(NC1CN(CCO)C1)c1ccc(-n2c(=O)ccc3cnc4ccc(-c5ccc(Cl)cc5)cc4c32)cc1 | 1.9 ×10⁻⁶ cm/s
* CN1CCN(C(=O)c2ccc(-n3c(=O)ccc4cnc5ccc(-c6ccc(Cl)cc6)cc5c43)cc2)CC1 | 1080 ×10⁻⁶ cm/s
* COc1cc(-c2ccc3ncc4ccc(=O)n(-c5ccc(C(=O)N6CCOCC6)cc5)c4c3c2)ccc1Cl | 363 ×10⁻⁶ cm/s
* Cc1cc(C(=O)NCCCN2CCCCC2)ccc1-n1c(=O)ccc2cnc3ccc(-c4ccc(Cl)cc4)cc3c21 | 1380 ×10⁻⁶ cm/s
* Cn1c(=O)n(-c2cccc(C#N)c2)c2c3cc(-c4cccc(O)c4)ccc3ncc21 | 407 ×10⁻⁶ cm/s

Data provenance is patent US11753408B2.
